assay: Pharmacokinetic study in mice, plasma and brain structures, LC/MS/MS; format: in vivo, Swiss albino mice; settings: Swiss albino, mouse, striatum, ip, 0.625 mg/kg, 0.625 mg/kg i.p., 30 min, read-out: Concentration, striatum (Mean)
reported-endpoint: concentration at 30 min (ng/mL)
Give just the numeric value; ng/mL need not be written.

Given the molecule `Cn1c(=O)c2c(nc3n(CCCCN4CCN(c5ccccc5F)CC4)ccn23)n(C)c1=O` , what is its reported concentration at 30 min?
262

###

Test: Pharmacokinetic study in mice, plasma and brain structures, LC/MS/MS
Type: in vivo, Swiss albino mice
Details: Swiss albino, mouse, frontal cortex, ip, 1.25 mg/kg, 1.25 mg/kg i.p., 480 min, read-out: Concentration, frontal cortex (individual animals)
Method: Blood samples from the Swiss albino mice were collected at 0 (pre-dose), 5, 15, 30, 60, 120, 240 and 480 min after a compound administration. […] The ion source parameters were as follows: ion spray voltage: 5500 V; nebulizer gas (gas 1): 20 psi; turbo gas (gas 2): 25 psi; temperature of the heated nebulizer: 400°C; curtain gas: 40 psi; collision gas: 6 psi. […] Quantification was done via peak area ratio. […]
reported-endpoint: concentration at 480 min

# get_value(readout='concentration at 480 min', item= `Cn1c(=O)c2c(nc3n(CCCCN4CCN(c5cccc(C(F)(F)F)c5)CC4)ccn23)n(C)c1=O` )
1.96 ng/mL

Where do these numbers come from? They come from paper PMC7413516.
